B1: library; a variant is named by its letters at X, in order (parent)
chain: MNIQIGELAKRTACPVVTIRFYEQEGLLPPPGRSRGNFRLYGEEHVERLQFIRHCRSLDMPLSDVRTLLSYRKRPDQDCGEVXMLLDEHIRQVESRIGALLELKHHLVELREACSGARPAQSCGILQXLSXCVCXTRGTTAHXSD

variants of: B1; experiment: sfGFP reporter fluorescence (15 h) (µM FITC); higher = higher leak; conditions: library round: Round 2; ligand: none
Readout kind: sfGFP reporter fluorescence

>>> reported_result("NIDDP M60L P61N K104V L107C")
0.315
>>> reported_result("NIDAK M84A L107C")
1.54
>>> reported_result("NHDDL E109L I125L")
0.048
>>> reported_result("SGDAY")
0.0491
>>> reported_result("SGDDP I90L V108N")
0.0447
>>> reported_result("TIDDP D64K K104V")
0.156
>>> reported_result("NMDAP L101V K104V")
0.176
>>> reported_result("TGCDT")
0.0478
>>> reported_result("NIAPP")
0.139
>>> reported_result("NGDAP E109D G124A")
0.0638
>>> reported_result("TGDDT R111I")
0.0459
>>> reported_result("NGDDP M60L D64S L107C")
3.21
>>> reported_result("NGCDP I125V L129M")
0.0493
>>> reported_result("NIDDP I90L K104V L107C")
0.0665
>>> reported_result("NIDSP M60L")
0.251
>>> reported_result("SGMAP")
0.0668
>>> reported_result("NGCAL")
0.0515
>>> reported_result("NADPP V108L L129M")
0.0617
>>> reported_result("NGADP V133P C134V")
0.0817
>>> reported_result("NGADW L126I")
0.0633
>>> reported_result("NHCDA")
0.0569
>>> reported_result("TGDDP D64T R111A")
0.09
>>> reported_result("NMDDP M60L D64T L107C")
3.16
>>> reported_result("NGDDP")
0.0488
>>> reported_result("TIDAP L107C G124A")
0.27
>>> reported_result("NGDDP M60L D64K E81A")
1.03
